Compiled record: Ki values for Carbonic anhydrase 1 (Homo sapiens) across several sources.

Observe how each entry below is paired with its result.
>>> observed("O=c1ccc2cc(-n3cc(CNc4cccc([N+](=O)[O-])c4)nn3)ccc2o1")
"> 50 µM"
>>> observed("O=c1ccc2cc(-n3cc(CNc4ccc(Br)cc4)nn3)ccc2o1")
"> 50 µM"
>>> observed("COc1cc(C(=O)OCCCN(C)CCCCCOC(=O)COc2ccc3ccc(=O)oc3c2)cc(OC)c1OC")
"> 10 µM"
>>> observed("O=C1CC(c2ccccc2)Cc2nc(Nc3ccc(S(=O)(=O)Nc4ccc([N+](=O)[O-])cc4)cc3)ncc21 (centres unmarked)")
"> 100 µM"
>>> observed("COc1ccc(C2=NN(c3ccc(S(N)(=O)=O)cc3)C(c3ccc4c(c3)OCO4)C2)cc1OC (centres unmarked)")
"25.5 µM"
>>> observed("N#Cc1ccc(/C=C/c2ccc(O)cc2)cc1")
"> 100 µM"
>>> observed("COc1cc(C(=O)c2ccn(-c3cccc(S(N)(=O)=O)c3)c2)cc(OC)c1OC")
"0.644 µM"

Entry COC(=O)[C@H](C)NC(=O)N[C@@H](C)C(=O)Nc1ccc2c(C)cc(=O)oc2c1 , system Carbonic anhydrase 1 (Homo sapiens): what Ki was measured? > 10 µM

----------
Recorded Ki for molecules tested on Carbonic anhydrase 1 (Homo sapiens, UniProt P00915), drawn from a number of studies.
RESULT TYPE: Ki (nM)

(I) COc1ccc(OCc2cn(CCCS(N)(=O)=O)nn2)cc1
(II) NS(=O)(=O)c1ccc(N2CC[C@@H](NC(=S)Nc3ccccc3)C2)nc1
// which entry has the larger Ki value, I or II ? Identify your selection by its label. I

(1) NS(=O)(=O)c1ccc(CNC(=O)[C@@H](CSc2ccccc2)NC(=O)OCc2ccccc2)cc1
(2) NS(=O)(=O)c1ccc(NC(=O)c2ccc3cc[nH]c3c2)cc1
(3) NS(=O)(=O)c1ccc2c(c1)CCN2C(=O)c1cccs1
Sort low-to-high on Ki, please. Return value: ordered labels per request. 3, 1, 2

----------
Published Ki for UniProt P00915, assembled from different documents, is shown next.
RESULT TYPE: Ki (µM)

(A) Cn1c2ccc(Cl)cc2c2nnc(SCc3cn(-c4ccc(S(N)(=O)=O)cc4)nn3)nc21
(B) Cc1ccc2nccc(Nc3ccccc3S(N)(=O)=O)c2c1
A or B : whose Ki is greater? Let me know the label of the one you choose. A
(A: 5.14 µM, B: 0.558 µM)

(I) NS(=O)(=O)c1ccc(O)c(NC(=O)c2ccc3[nH]ccc3c2)c1
(II) NS(=O)(=O)c1ccc2c(c1)CCN2C(=O)c1ccc(F)cc1
Could you please tell me which of these two has the higher Ki: I or II ? Give the label of your selection. I
(I: 4.77 µM, II: 0.0883 µM)

----------
UniProtKB P00915 pKi, compiled from various sources.
pKi: −log10 of the molar value.
RESULT TYPE: pKi

Illustrative cases are given below, each with its answer.
>>> observed("COc1cc(C(=O)c2cn(-c3cccc(S(N)(=O)=O)c3)cc2-c2ccccc2)cc(OC)c1OC")
5.99
>>> observed("CC(=O)Nc1cccc(C(=O)NC(=S)Nc2ccc(S(N)(=O)=O)cc2)c1")
7.24

(A) CC(C)C[C@@H](NC(=O)OCc1ccccc1)C(=O)NCCc1ccc(S(N)(=O)=O)cc1
(B) NS(=O)(=O)c1ccc(NC(=O)NCCNCc2ccc(F)cc2)cc1
(C) Cc1ccc2nc(NC(=O)CNC(=O)OCc3ccccc3)sc2c1
(D) COc1cc(C2=NN(c3ccc(S(N)(=O)=O)cc3)C(c3ccc4c(c3)OCO4)C2)cc(OC)c1OC (centres unmarked)
Order by pKi, ascending. Form entry: labels listed in requested order. D, C, B, A

----------
Here is a set of compounds with reported Ki for Carbonic anhydrase 1 (Homo sapiens), compiled from the literature.
RESULT TYPE: Ki (µM)

Consider the following illustrative entries.
>>> observed("NS(=O)(=O)c1ccc(NC(=O)c2cc3occc3n2Cc2ccc(Cl)cc2)cc1")
0.878
>>> observed("C=CCn1c2ccccc2c2nnc(SCc3cn(-c4ccc(S(N)(=O)=O)cc4)nn3)nc21")
0.536

(A) CN(CCCCCCOC(=O)c1c2ccccc2cc2ccccc12)CCCOC(=O)c1ccc(S(N)(=O)=O)cc1
(B) CC(=O)Nc1ccc(C(=O)NC(=S)Nc2ccc(S(N)(=O)=O)cc2)cc1
(C) O=C(C=Cc1cccc(O)c1)c1ccc2[nH]c(=O)oc2c1
Highest Ki first, then in falling order down to the smallest. State the ranking by listing the labels in the requested order. C, B, A

----------
pKi: −log10 of the molar value.
Here is a set of compounds with reported pKi for Carbonic anhydrase 1 (Homo sapiens), compiled from the literature.
RESULT TYPE: pKi

Study these solved cases before continuing.
>>> observed("CC1CCC2(CC1)N=C(N)N=C(Nc1ccc(S(N)(=O)=O)cc1)N2 (stereo not drawn)")
6.39
>>> observed("Cc1ccc(NS(=O)(=O)c2ccc(Nc3ncc4c(n3)CC(C)(C)CC4=O)cc2)cc1")
4.07
>>> observed("NS(=O)(=O)c1ccc(CNC(=O)[C@H](Cc2ccccc2)NC(=O)OCC2c3ccccc3-c3ccccc32)cc1")
5.29
>>> observed("COc1ccc(C(=O)N2CCc3cc(S(N)(=O)=O)ccc32)c(OC)c1")
7.15
>>> observed("NS(=O)(=O)c1ccc(N2N=C(c3ccccc3)CC2c2ccc3c(c2)OCO3)cc1 (stereo not drawn)")
4.22
>>> observed("Cc1cn([C@H]2C[C@H](n3cc(CNC(=O)Nc4cccc(S(N)(=O)=O)c4)nn3)[C@@H](CO)O2)c(=O)[nH]c1=O")
6.54
>>> observed("COc1cc(C2=NN(c3ccc(S(N)(=O)=O)cc3)C(c3ccc4c(c3)OCO4)C2)ccc1O (stereo not drawn)")
4.53
>>> observed("Cc1ccc(C(=O)Nc2ccc(C(=O)NC(=S)Nc3ccc(S(N)(=O)=O)cc3)cc2)cc1")
7.37

(P) NS(=O)(=O)c1ccc(NC(=O)c2cc3sccc3n2Cc2ccc(Cl)cc2)cc1
(Q) NS(=O)(=O)c1ccc(N2N=C(c3ccccc3)CC2c2ccc(O)cc2)cc1 (stereo not drawn)
Higher pKi: P or Q ? Choose, then provide that item's label. Q

(a) CN(C)c1ccc(C=CC(=O)c2ccc3[nH]c(=O)oc3c2)cc1
(b) NS(=O)(=O)c1ccc(O)c(NC(=O)CCc2c[nH]c3ccccc23)c1
Smaller pKi value, a vs b ? Mark your answer with the label of the selected entry. a
(a: 4.28, b: 5.55)

(a) NS(=O)(=O)c1ccccc1NC(=O)c1ccc2[nH]ccc2c1
(b) NS(=O)(=O)c1ccc(C(=O)NCc2cn(CCCS(=O)(=O)[O-])nn2)cc1.[Na+]
Kindly compare a with b and tell me which has the lower pKi figure. Lab note: record the label of whichever item you select. a

(P) NS(=O)(=O)c1cccc(NC(=O)CCc2c[nH]c3ccccc23)c1
(Q) NS(=O)(=O)c1ccc(CCNC(=O)[C@H](Cc2ccccc2)NC(=O)OCC2c3ccccc3-c3ccccc32)cc1
Return label of the item with the larger pKi. Candidates: P , Q . Kindly state the label of the option you pick. P

----------
pKi: −log10 of the molar value.
System: Carbonic anhydrase 1 (Homo sapiens) | Read-out: pKi | Origin: multiple publications
RESULT TYPE: pKi

>>> observed("NS(=O)(=O)c1ccc(N2CC[C@H](NC(=S)Nc3ccccc3)C2)nc1")
6.49
>>> observed("CSCC[C@@H](NC(=O)OCc1ccccc1)C(=O)NCc1ccc(S(N)(=O)=O)cc1")
8.03
>>> observed("NS(=O)(=O)c1ccc(NC(=O)c2cc3occc3n2Cc2ccccc2)cc1")
5.45
>>> observed("COc1cc2c(cc1OC)-c1c(c(C(=O)Nc3ccc(S(N)(=O)=O)cc3)nn1C)C2")
6.14

(P) NS(=O)(=O)c1ccc(N2N=C(c3ccc(Br)cc3)CC2c2ccccc2)cc1 (stereo not shown)
(Q) NS(=O)(=O)c1ccc(N2N=C(c3ccccc3)CC2c2ccccc2)cc1 (stereo not shown)
Please indicate which entry, P or Q , has the lower recorded pKi value. Identify your selection by its label. Q

(I) NS(=O)(=O)c1ccc(Cn2cc(-c3ccccn3)nn2)cc1
(II) NS(=O)(=O)c1ccc(NC(=S)NC(=O)c2ccc(Br)cc2)cc1
(III) NS(=O)(=O)c1cccc(NC(=O)NCCNCc2ccc(Cl)cc2)c1
(IV) NS(=O)(=O)CCCCn1cc(COc2ccccc2)nn1
(V) COc1cccc(C2=NN(c3ccc(S(N)(=O)=O)cc3)C(c3ccc4c(c3)OCO4)C2)c1 (stereo not shown)
Returns the items ordered by pKi, from maximum to minimum. Please write the labels in the order that was asked for. II, I, III, IV, V

----------
Assay read-out Ki on Carbonic anhydrase 1 (Homo sapiens, UniProt P00915); records merged from the literature.
RESULT TYPE: Ki (µM)

>>> observed("COc1cc(C(=O)N2CCc3cc(S(N)(=O)=O)ccc32)cc(OC)c1OC")
0.049
>>> observed("COc1cc(C(=O)c2ccn(-c3ccccc3S(N)(=O)=O)c2)cc(OC)c1OC")
5.84

(A) CC(=O)Nc1cccc(C(=O)NC(=S)Nc2ccc(C(=O)O)cc2)c1
(B) CC(C)(C)OC(=O)NCC(=O)NCc1ccc(S(N)(=O)=O)cc1
(C) Oc1ccc(/C=C/c2ccccc2)cc1Cl
Kindly order the items shown according to Ki, from the highest value down. # the answer lists labels in the order requested C, A, B
(C: 89.5 µM, A: 8.18 µM, B: 3.34 µM)
